- System: SiHa
- assay_summary: Cytotoxicity against human SiHa cells after 6 days by MTT assay
- Type: functional
- condition_parameters: 144 h, read-out: ED50 (the source's name)
measured_endpoint: EC50 (µg/mL)
Number only, in µg/mL; omit the unit.

Answered cases to consult:
C=C(C)/C(C)=C\C[C@@H](C(=O)O[C@@H]1OC[C@@H](O)[C@H](O)[C@H]1O)[C@H]1CC[C@@]2(C)C3=C(CC[C@]12C)[C@@]1(C)CC[C@@H](OC(C)=O)C(C)(C)[C@@H]1CC3 [TSUGARIOSIDE C] | 9.5
CC(C)=CCC[C@@H](C(=O)O)[C@H]1CC[C@@]2(C)C3=C(CC[C@]12C)[C@@]1(C)CCC(=O)C(C)(C)[C@@H]1CC3 | 5.1
CC(=O)O[C@@H]1CC[C@]2(C)C3=C(CC[C@H]2C1(C)C)[C@]1(C)CC[C@H]([C@@H](CCC=C(C)C)C(=O)O[C@@H]2O[C@H](CO)[C@@H](O)[C@H](O)[C@H]2O)[C@@]1(C)CC3 [TSUGARIOSIDE A] | 8.4

Tell me the measured EC50 of CC(C)=CCC[C@@H](C(=O)O)[C@H]1CC[C@@]2(C)C3=C(CC[C@]12C)[C@@]1(C)CC[C@H](O)C(C)(C)[C@@H]1CC3 , please. 5.5

====

- assay_summary: Cytotoxicity against human PLC/PRF/5 cells after 6 days by MTT assay
- Assay type: functional
- condition_parameters: PLC-PRF-5, 144 h, read-out: ED50 (the source's name)
Numbered stars: 1 amine (or outer) side, 2 acyl side, 3 side chain; on linkers, the order of the positions; unused ones are H or OH. Bridge positions count the residues as written; N and C are the ends. Square brackets hold non-standard residues; d marks the D form. Peptide text beside a SMILES is read from it. I, II: the chains in the order shown. Actinocin(1to9) = Cc1c2oc3c(C)ccc(C(=O)[*:2])c3nc-2c(C(=O)[*:1])c(N)c1=O; NMeV = CN[C@H](C(=O)O)C(C)C; Sar = CNCC(=O)O
measured_endpoint: EC50

Cc1c2oc3c(C)ccc(C(=O)N[C@@H]4C(=O)N[C@H](C(C)C)C(=O)N5CCC[C@H]5C(=O)N(C)CC(=O)N(C)[C@@H](C(C)C)C(=O)O[C@@H]4C)c3nc-2c(C(=O)N[C@@H]2C(=O)N[C@H](C(C)C)C(=O)N3CCC[C@H]3C(=O)N(C)CC(=O)N(C)[C@@H](C(C)C)C(=O)O[C@@H]2C)c(N)c1=O [DACTINOMYCIN] (I: T[dV]P[Sar][NMeV] / II: T[dV]P[Sar][NMeV]; ester I:1-I:C, II:1-II:C; linker I:N-II:N via Actinocin(1to9)) | 0.0014 µg/mL
CC(C)=CCC[C@@H](C(=O)O)[C@H]1CC[C@@]2(C)C3=C(CC[C@]12C)[C@@]1(C)CCC(=O)C(C)(C)[C@@H]1CC3 | 12.1 µg/mL
C=C(C)/C(C)=C\C[C@@H](C(=O)O[C@@H]1OC[C@@H](O)[C@H](O)[C@H]1O)[C@H]1CC[C@@]2(C)C3=C(CC[C@]12C)[C@@]1(C)CC[C@@H](OC(C)=O)C(C)(C)[C@@H]1CC3 [TSUGARIOSIDE C] | 6.5 µg/mL
CC(=O)O[C@H]1CC[C@]2(C)C3=C(CC[C@H]2C1(C)C)[C@]1(C)CC[C@H]([C@@H](CCC=C(C)C)C(=O)O)[C@@]1(C)CC3 | 9.2 µg/mL

Tell me the measured EC50 of CC(=O)O[C@@H]1CC[C@]2(C)C3=C(CC[C@H]2C1(C)C)[C@]1(C)CC[C@H]([C@@H](CCC=C(C)C)C(=O)O)[C@@]1(C)CC3 , please. 6.8 µg/mL
